This collection of values is drawn from PubChem BioAssay (NCI).

assay text: NCI Yeast Anticancer Drug Screen. Data for the mec2-1 strain (AID 157)
measurement conditions: S. cerevisiae mec2-1 strain, at 50.0 µM (retest, dose inferred, filed as 5.0)
About 79,000 compounds went through this panel and 15% of them were active in at least one assay; those are over-represented in the sample as a whole. Calls of active or inactive are those of the source. Cut-off read from the data, not from the text of the source: active = growth inhibition above about 70%; inactive = the rest.
Thanks in advance; please answer with one of these: True = active, False = inactive

[in] Can you look up the reported call for `Cn1cccc1C(/C=C/c1ccccc1[N+](=O)[O-])c1cccn1C` for me?
[out] False

[in] Can you look up the reported call for `CC(C)=NOc1ccc([N+](=O)[O-])cc1[N+](=O)[O-]` for me?
[out] True

[in] Can you look up the reported call for COc1ccc2ccc3c(c2c1)CCC(C(=O)O)C3CC(=O)O (stereo not given) for me?
[out] False

[in] Can you look up the reported call for `Cc1cc2c(c([N+](=O)[O-])c1C)C(=O)C(Br)=C(N)C2=O` for me?
[out] True

[in] Can you look up the reported call for `COC(=O)c1nc(=S)[nH]c(C(=O)OC)c1C(=O)c1c(C)[nH]c2ccccc12` for me?
[out] False
